- System: PXR:RXRa (NR concentration 270 nM, RXRa partner concentration 90 nM)
- test.summary: PBM binding z-score (relative to random genomic background probes); higher = stronger binding; sequences stand for … in GC…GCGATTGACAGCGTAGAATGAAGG
Recorded PBM binding z-score values for a group of sequences are listed next.

The cases that follow already have their PBM binding z-score on record.
CAAACTAGGTCATGGTCAAAGTCGGTTTGTGCCA = 1.75
TCGAGTAGGTTACGAATGGGGCATTCAGCTTTCT = -0.00987
TTACCAAGGAGAGCTGAGGTCGTTGATCCAACTC = 1.29
GGAACGAGGGCATTCGAGTTGATGGCATGGCGAT = 3.26
AGAATGAGGTTATGCGTAGATCAGGGAAGAAAGT = 0.966
TCTTATAGGTAAAAGGTGAAAGTCGGTGTGGTAA = 1.92

I'd like to know its PBM binding z-score. The sequence in question is `GTACCTAGGTGAATAGGTCGTTGATGAGTAGGCG`
0.327

I'd like to know its PBM binding z-score. The sequence in question is `ATCGAAAGGTCGCGAGGTGAGTATACAGAAAGGC`
3.33

I'd like to know its PBM binding z-score. The sequence in question is `CCTTACGGGTCACCGACAGGTTATAGCATTTGGA`
4.11

I'd like to know its PBM binding z-score. The sequence in question is `TCTCCGAGGACACGAAGGTCAGAGCTTTCCAGAG`
2.1

I'd like to know its PBM binding z-score. The sequence in question is `TTACCAAGGTGGGCTGAGGTCGTTGATCCAACTC`
2.86

I'd like to know its PBM binding z-score. The sequence in question is `ATATGTAGGTTAGCTGGGTTCATTCAGACTAGGC`
6.34

I'd like to know its PBM binding z-score. The sequence in question is `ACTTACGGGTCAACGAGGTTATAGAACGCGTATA`
5.08

I'd like to know its PBM binding z-score. The sequence in question is `TCTTGTTGATCAGCAGGTTAAGAAAGCTGGCCAA`
0.332

I'd like to know its PBM binding z-score. The sequence in question is `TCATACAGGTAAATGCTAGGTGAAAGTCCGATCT`
0.585

I'd like to know its PBM binding z-score. The sequence in question is `ATATGTAGATTAAGGGTCATTCAGGTTGGTTCGC`
4.89

I'd like to know its PBM binding z-score. The sequence in question is `CCGAGTTGGTCAGGAGGTCACACACCGGATATGA`
4.53

###

- System: RARb homodimer (NR concentration 270 nM)
- test.summary: PBM binding z-score (relative to random genomic background probes); higher = stronger binding; sequences stand for … in GC…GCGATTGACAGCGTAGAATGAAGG
measured.property: PBM binding z-score
Form rule: numeric answer, no unit written next to it.

The cases that follow already have their PBM binding z-score on record.
AGAATGAGGTTATGAAGATCAGGGAATTGCGGTC = 1.07
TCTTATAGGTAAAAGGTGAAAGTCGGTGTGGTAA = 1.91
CCAGACAGGTGAAAGGTAACGCAGTCTGGTACGC = 1.03
GGTGCTAGGTCAGGTTGGTCAGCTAACGGGTACG = 3.2
CCAGACAGGTGAAAGGGAACTCAGTCTGGTACGC = 0.101

I'd like to know its PBM binding z-score. The sequence in question is `TCAAACAGGTGAAGGTAACTCAGGTACGCAGTCG`
0.716

###

- Tested on: PPARg:RXRa (NR concentration 180 nM, RXRa partner concentration 90 nM)
- test.summary: PBM binding z-score (relative to random genomic background probes); higher = stronger binding; sequences stand for … in GC…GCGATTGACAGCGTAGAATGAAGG
Recorded PBM binding z-score values for a group of sequences are listed next.
Form rule: numeric answer, no unit written next to it.

The cases that follow already have their PBM binding z-score on record.
CAAACTACGTCACAGAGGTCAAAGTCCGTGCGTA = 3.52
CCTAGTTGTTCAAGGTCACACACGCTATAGGTAC = 2.64
TCTAGTTGGACAAAGGTCACACACTCGAAATGCG = 9.82
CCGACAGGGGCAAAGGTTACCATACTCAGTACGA = 7.39
CGAACTAGGTCATTGACAGGACAGTTAATAGTAA = 7.39
GCGACTGGGGCAAAGCACGTTACCATAAGGTTGG = 1.7

Lab note: need PBM binding z-score for `CCTCACGGGTCAAGGTTATAGCACGGGTGGTACG` on PPARg:RXRa (NR concentration 180 nM, RXRa partner concentration 90 nM), anyone have it?
3.05

Lab note: need PBM binding z-score for `CCGAGTAGGTTATGGGGCGTTCAGGCAACGGTGA` on PPARg:RXRa (NR concentration 180 nM, RXRa partner concentration 90 nM), anyone have it?
2.44

Lab note: need PBM binding z-score for `TCTTGTAAATCAAAGGTTAAGAAAGCCGAAGCCT` on PPARg:RXRa (NR concentration 180 nM, RXRa partner concentration 90 nM), anyone have it?
3.23

Lab note: need PBM binding z-score for `CATACAGCGTCAGCTAGGCCAGAGTAGGGACGGC` on PPARg:RXRa (NR concentration 180 nM, RXRa partner concentration 90 nM), anyone have it?
0.332

Lab note: need PBM binding z-score for `ATCGAAAGATCGAGGTGAGTATAGAGAAAGGGAA` on PPARg:RXRa (NR concentration 180 nM, RXRa partner concentration 90 nM), anyone have it?
0.553

Lab note: need PBM binding z-score for `AATACAGAGTCACTAGGCCAGAGTAGGTACGAAT` on PPARg:RXRa (NR concentration 180 nM, RXRa partner concentration 90 nM), anyone have it?
1.31

###

- Test system: RARa homodimer (NR concentration 270 nM)
- test.summary: PBM binding z-score (relative to random genomic background probes); higher = stronger binding; sequences stand for … in GC…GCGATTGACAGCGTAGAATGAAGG
Class membership depends on PBM binding z-score alone; the intervals are low bin: < 0.2; mid bin: ≥ 0.2 and < 1; high bin: ≥ 1

AATAGTTGGTCAGCTGAGGTCACACACAATTCGG = high bin
CCTACTGGGCCACGAAAGGTCATTGGTTCAGTGA = mid bin
CCTACTGGGCCAAAAACGTCATTGATGCCGATAA = low bin
CGAACTAGGTCAGAACAGGACAGTGGAGGATGAT = mid bin
CGAACTAGGTCAGTGACAGGACAGTGAATAGTAA = mid bin
CGTCCAAGGTCATAGGAGGTCAGTTAAGACAGAT = high bin

Using the reported PBM binding z-score, which band applies to `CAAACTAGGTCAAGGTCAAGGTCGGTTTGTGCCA` ?
high bin

Using the reported PBM binding z-score, which band applies to `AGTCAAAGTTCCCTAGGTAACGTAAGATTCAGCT` ?
low bin

Using the reported PBM binding z-score, which band applies to `ACTACTAGTTGAGACGAGGGCAACCGATAGGTTG` ?
low bin

###

Recorded PBM binding z-score values for a group of sequences are listed next.
- Tested on: RXRa homodimer (NR concentration 180 nM)
- test.summary: PBM binding z-score (relative to random genomic background probes); higher = stronger binding; sequences stand for … in GC…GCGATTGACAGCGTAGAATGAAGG
Form rule: numeric answer, no unit written next to it.

TCTTGTAGTTCAAGCAGGTTAAGAAAGCCTGAGT = 1.47
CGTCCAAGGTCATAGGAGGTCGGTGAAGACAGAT = 6.13
CCGGCTAGGTCATGGTCAGCTAATCTACAGTATG = 3.01
CCTACTGGTCCACGAAAGGTCATTGATTCAGTGA = 5.49
GCTCGGAGGACAAGGCCAGAGCTTTGTCCGTAGA = -1.17

Query sequence follows.
I'd like to know its PBM binding z-score. The sequence in question is `ACTATTAGTTGACTTAGCGCAACCGATACGACGC`
0.244

###

- Test system: PPARg:RXRa 90nM:30nM, anti-RXR (NR concentration 90 nM, RXRa partner concentration 30 nM)
- test.summary: PBM binding z-score (relative to random genomic background probes); higher = stronger binding; sequences stand for … in GC…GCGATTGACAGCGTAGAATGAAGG
Entry flag: label 1 if PBM binding z-score reaches 1; label 0 if it does not.

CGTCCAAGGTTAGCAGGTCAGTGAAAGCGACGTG = label 1
CAAACTAGGTCACCGCAAGGTCAAAGTCCGCATG = label 1
GCTTGTAGATCAGGGTTAAGAAAGACTAAGCTAA = label 0

Determine whether measured PBM binding z-score meets or exceeds 1 for `GTACCAAGGTGAATAGGTCCTTGATGAGTAGGCG`
label 0

Determine whether measured PBM binding z-score meets or exceeds 1 for `TCGAGCAGGCCAGAGGGTCACTCAAGAGGTACGG`
label 1

Determine whether measured PBM binding z-score meets or exceeds 1 for `CCACGGAGGACAGAAGGTCAGAGCTGTCCGCTTT`
label 0

Origin of measurements: the supplement of paper PMC6555819
